Every entry's value here was drawn from the Human Domainome abundance scans (Beltran et al. 2025).

B1: SH3 and PX domain-containing protein 2B, residues 155 to 209; numbered along this chain, A1X283 (parent)
chain: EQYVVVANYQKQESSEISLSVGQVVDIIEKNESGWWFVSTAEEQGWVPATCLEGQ

Variants of: B1
Method notes: abundance fitness (aPCA) (normalised: wild type 0, dead -1); higher = more abundant; growth selection in yeast, the domain comes from the species named
Test settings: Homo sapiens
For each of the variants below, state its abundance fitness.
Response field accepts a number only; no unit should be typed.

Query: abundance fitness; subject: I17R
-0.332

Dear colleague, I am looking for the recorded abundance fitness of the following variant: S33W
-0.387

Given P48F , state its recorded abundance fitness.
-0.998

So what does the record say about abundance fitness for E53V ?
-0.128

I would be grateful if you could share the reported abundance fitness for Q55G .
-0.229

Requested field: abundance fitness. Item: V4D
-0.148

Which abundance fitness value is on record for N8K ?
-0.083

May I ask what abundance fitness has been recorded for G34F ?
-0.598

Can you share its abundance fitness? I mean this variant: P48W
-0.835

Requested read-out: abundance fitness. Entry: A49D
-0.214

Need abundance fitness, item A7M
-0.15

Could you tell me which abundance fitness is on file for S15H ?
0.055

Which measured abundance fitness value corresponds to E43R ?
-0.111

May I ask what abundance fitness has been recorded for V4T ?
0.193

# query: abundance fitness of entry Q55S
-0.133

Any idea what abundance fitness was measured for A7K ?
-0.024

Bench note: what abundance fitness did V4Y show?
0.046

Data request, read-out abundance fitness, for Q2Y
-0.29

Field request: abundance fitness | item: Q23T
-0.085

Reported abundance fitness for W46E : what is it?
-0.91

// query abundance fitness value for entry T40Q
0.063

Sample V5F — what was its abundance fitness?
-0.875

Look at this variant and give its reported abundance fitness. Q44D
-0.14

// returns reported abundance fitness for input G54K
-0.231

Given the variant I28S , what is its reported abundance fitness?
-0.337

Entry V38W : reported abundance fitness = ?
-1.02

Would you mind telling me what abundance fitness value was observed for C51G ?
-0.711

Would you mind telling me what abundance fitness value was observed for Q44K ?
-0.106

Any idea what abundance fitness was measured for S15W ?
-0.049

Give the measured abundance fitness of Q12Y .
-0.313

Field request: abundance fitness | item: K11A
-0.106

Report abundance fitness for N8D please.
0.04

What value of abundance fitness has been reported for the following variant? N31Q
-0.188

Request the reported abundance fitness associated with E42H
0.063

# get_value(readout='abundance fitness', item= E53F )
-0.33

Name the recorded abundance fitness for E1G .
-0.315

Given the entry T40G , report its measured abundance fitness.
-0.19

Would you kindly share the measured abundance fitness for V25I ?
-0.317

Fill in: abundance fitness of V5K is ___
-0.552

Quick one: abundance fitness of A7D ?
-0.046

abundance fitness lookup needed for W46C , thanks.
-0.233

Look up abundance fitness: V21R
-0.005

What value of measured abundance fitness is listed for W35Q ?
0.04

Sample D26Y — what was its abundance fitness?
-0.272

Quick one: abundance fitness for Y9S ?
-0.484

Quick one: abundance fitness for S39R ?
-0.009

So what's the measured abundance fitness for this one? Y3A
0.106

Given G54N , state its recorded abundance fitness.
0.025

Form field: reported abundance fitness of W36M
-0.202

GET /values?readout=abundance fitness&item= E42W
-0.118

Recorded abundance fitness of S33M , please.
-0.272

Please give the measured abundance fitness for this variant: D26R
-0.103

Record request: abundance fitness value, item E32T
-0.122

Query (variant): W46G ; field requested: abundance fitness
-1.08

Please report the recorded abundance fitness for S39E .
0.013

Requested field: abundance fitness. Item: Q2T
-0.148

Query: abundance fitness; subject: F37H
-0.068

Quick one: abundance fitness of Q23E ?
0.001

Return reported abundance fitness; argument: K11F
-0.689

Would you kindly share the measured abundance fitness for L52C ?
-0.227

Fill in the blank: the reported abundance fitness of S39D is ____.
-0.113

Please report the recorded abundance fitness for P48Q .
-0.568

Recorded abundance fitness for W46A , please?
-0.599

Can you share its abundance fitness? I mean this variant: C51R
-0.343

Give its abundance fitness value. Item: E13L
-0.178

So what's the measured abundance fitness for this one? Q55N
-0.551

Returns the measured abundance fitness for the input variant. Input: E13T
-0.104

Name the reported abundance fitness value associated with the variant A41V
-0.127

// lookup abundance fitness for E42I
-0.387

Given C51S , state its recorded abundance fitness.
-0.219

What value of abundance fitness has been recorded for this entry: C51P
-0.959

# get_value(readout='abundance fitness', item= A41D )
-0.273

Name the recorded abundance fitness for G34D .
-0.125

Fill in the blank: the reported abundance fitness of V47M is ____.
-0.453

Which abundance fitness reading was recorded for the variant T40L ?
-0.031

Name the recorded abundance fitness for V24G .
-0.157

Which abundance fitness is listed for V6Q ?
-0.199

Please give the measured abundance fitness for this variant: E13R
-0.182

Reported abundance fitness for I17H : what is it?
-0.715

Sample Y9T — what was its abundance fitness?
-0.312
